Values were extracted from patent US20100126386A1.

# ASSAY OVERVIEW: Testing of the NIR sensitizers in photoinitiator mixtures (exposure of thin coats with halogen lamp)
# SETUP CONDITIONS: 0.5% by weight NIR sensitizer and 1.5% by weight boronate salt X in the paint base materials
PARAMETER: dissolution of the NIR sensitizer in the paint base material

compound="CCN1/C(=C/C=C2\\CCCC(/C=C/C3=[N+](CC)c4ccc(C(F)(F)F)cc4C3(C)C)=C2Cl)C(C)(C)c2cc(C(F)(F)F)ccc21 [Compound B11]" value_measured="not completely dissolved"
compound="CCN1/C(=C/C=C2\\CCCC(/C=C/C3=[N+](CC)c4ccc(C#N)cc4C3(C)C)=C2Cl)C(C)(C)c2cc(C#N)ccc21 [Compound B12]" value_measured="not completely dissolved"
compound="CN1\\C(=C/C=C/C=C/C=C/C2=[N+](C)c3ccc(Cl)cc3C2(C)C)C(C)(C)c2cc(Cl)ccc21 [Compound B7]" value_measured="not completely dissolved"
